# assay_target: Cathepsin D (Cat D) (Homo sapiens (Human))
# protocol_description: In vitro enzymatic Cathepsin D (Cat D) FRET assay
# Format: biochemical
# condition_label: read-out: CatD IC50
API: label(entry) gives Criterion met if the entry's IC50 is strictly smaller than 300 µM; on equality or larger values it gives Criterion not met.

Consider the worked cases shown below.
INSERT INTO measurements (molecule, classification) VALUES
  ('NC1=N[C@@](c2cc(NC(=O)c3ncc(Cl)cc3Cl)ccc2F)(C(F)F)[C@H]2C[C@H]2O1', 'Criterion not met'),
  ('NC1=N[C@@](c2cc(NC(=O)c3nn(C(F)F)cc3Cl)cc(F)c2F)(C(F)F)[C@H]2C[C@H]2O1 [Example 114]', 'Criterion met'),
  ('C[C@]1(c2nc(NC(=O)c3ncc(Cl)cc3Cl)ccc2F)N=C(N)O[C@@H]2C[C@@H]21', 'Criterion not met'),
  ('NC1=N[C@@](c2cc(-c3nc4ccc(Cl)cc4o3)ccc2F)(C(F)F)[C@H]2C[C@H]2O1', 'Criterion met');

Prompt line: API: query returns whether the molecule falls strictly under 300 µM in IC50. Query: COc1cnc(C(=O)Nc2ccc(F)c([C@@]3(C(F)F)N=C(N)O[C@@H]4C[C@@H]43)c2)c(C)c1
Response line: Criterion not met

Prompt line: In the record for N#Cc1cnc2c(Nc3ccc(F)c([C@@]4(CF)N=C(N)O[C@@H]5C[C@@H]54)c3)nccc2c1 , is IC50 less than 300 µM?
Response line: Criterion met

---

# assay_target: BACE (Homo sapiens (Human), UniProt P56817)
# protocol_description: In vitro BACE cell-based assay (Aβ40 in conditioned medium, sandwich ELISA)
Decide using IC50 alone. Strictly below 0.02 µM: Satisfied. Equal to or above 0.02 µM: Not satisfied.

INSERT INTO measurements (compound, classification) VALUES
  ('NC1=N[C@@](c2cc(NC(=O)c3cnc(C#CC4CC4)cn3)ccc2F)(C(F)F)[C@H]2C[C@H]2O1', 'Not satisfied');

Prompt line: Identify whether the compound COc1cnc(C(=O)Nc2cc(F)c(F)c([C@]3(CF)N=C(N)O[C@H]4C[C@H]43)c2)cn1 records IC50 below 0.02 µM.
Response line: Not satisfied

Prompt line: Just wondering, is IC50 of COc1ccc(C(=O)Nc2ccc(Cl)c([C@@]3(CF)N=C(N)O[C@@H]4C[C@@H]43)c2)nc1 below 0.02 µM?
Response line: Not satisfied

Prompt line: hey, is IC50 for COc1ccc(C(=O)Nc2ccc(Cl)c([C@@]3(C(F)F)N=C(N)O[C@@H]4C[C@@H]43)c2)nc1 lower than 0.02 µM or not?
Response line: Not satisfied

Prompt line: Does COc1cnc2c(Nc3ccc(F)c([C@@]4(C(F)F)N=C(N)O[C@@H]5C[C@@H]54)c3)nccc2n1 have IC50 strictly under 0.02 µM?
Response line: Not satisfied

Prompt line: is_below(IC50, 0.02 µM) for NC1=N[C@@](c2cc(Nc3nccc4nc(C(F)(F)F)cnc34)ccc2F)(C(F)F)[C@H]2C[C@H]2O1 ?
Response line: Not satisfied

---

# assay_target: BACE (Homo sapiens (Human))
# protocol_description: In vitro BACE cell-based assay (Aβ40 in conditioned medium, sandwich ELISA)
measured_quantity: IC50

INSERT INTO measurements (molecule, measured_quantity, result) VALUES
  ('Cc1cc(OC(F)F)cnc1C(=O)Nc1cc(F)c(Cl)c([C@]2(CF)N=C(N)O[C@H]3C[C@H]32)c1 [Example 157]', 'IC50', '> 15.6 µM');

I would be grateful if you could provide IC50 for each of the following entries.
1. C#CCOc1cnc(C(=O)Nc2ccc(Cl)c([C@@]3(C(F)F)N=C(N)O[C@@H]4C[C@@H]43)c2)cn1
2. NC1=N[C@@](c2cc(NC(=O)c3cnc(OCc4cocn4)cn3)ccc2F)(C(F)F)[C@H]2C[C@H]2O1
3. CC#Cc1cncc(-c2ccc(F)c([C@@]3(C(F)F)N=C(N)O[C@@H]4C[C@@H]43)c2)c1

Response line:
1: 0.0033 µM; 2: 0.0186 µM; 3: 3.36 µM

---

# assay_target: UniProtKB P56817
# protocol_description: In vitro enzymatic BACE FRET assay
# Type: biochemical
# condition_label: read-out: BACE1 Enzyme assay IC50
measured_quantity: IC50

Give IC50 for all compounds that follow.
1. NC1=N[C@@](c2cc(NC(=O)C3(c4ccc(Cl)cc4)CC3)ccc2F)(C(F)F)[C@H]2C[C@H]2O1
2. N#Cc1cnc2c(Nc3cc(F)c(F)c([C@]4(C(F)F)N=C(N)O[C@H]5C[C@H]54)c3)ncc(F)c2c1
3. COc1cnc2c(Nc3ccc(F)c([C@]4(C)N=C(N)O[C@@H]5C[C@@H]54)c3)nccc2c1
4. NC1=N[C@@](c2cccc(NC(=O)c3ccc(Cl)cn3)c2)(C(F)F)[C@H]2C[C@H]2O1 [Example 263]
5. COc1cnc(C(=O)Nc2ccc(F)c([C@@]3(C(F)F)N=C(N)O[C@@H]4C[C@@H]43)c2)c(C)n1
6. COc1ccc(C(=O)Nc2ccc(F)c([C@@]3(CF)N=C(N)O[C@@H]4C[C@@H]43)c2)nc1
7. NC1=N[C@@](c2cc(NC(=O)c3coc(C#CC4CC4)n3)ccc2F)(C(F)F)[C@H]2C[C@H]2O1

Response line:
["> 40000 nM", "> 13700 nM", "> 40000 nM", "525 nM", "63.7 nM", "124 nM", "24800 nM"]

Provide the reported IC50 of each entry below, same order.
1. NC1=N[C@@](c2cc(NC(=O)c3cnc(OCC4CCCCC4)cn3)ccc2F)(C(F)F)[C@H]2C[C@H]2O1
2. CC#CCOc1cnc(C(=O)Nc2cc(F)c(F)c(C3(CF)N=C(N)O[C@H]4C[C@H]43)c2)cn1 (stereo in doubt)
3. C#CCOc1ccc(C(=O)Nc2ccc(F)c([C@@]3(C(F)F)N=C(N)O[C@@H]4C[C@@H]43)c2)nc1
4. Cc1cc(C(F)F)cnc1C(=O)Nc1ccc(Cl)c([C@@]2(CF)N=C(N)O[C@@H]3C[C@@H]32)c1

Response line:
1: 12.1 nM; 2: 296 nM; 3: 16.4 nM; 4: 99 nM

---

# assay_target: Beta Secretase enzyme (BACE) (Homo sapiens (Human), UniProt P56817)
# Sequence (P56817 46-501): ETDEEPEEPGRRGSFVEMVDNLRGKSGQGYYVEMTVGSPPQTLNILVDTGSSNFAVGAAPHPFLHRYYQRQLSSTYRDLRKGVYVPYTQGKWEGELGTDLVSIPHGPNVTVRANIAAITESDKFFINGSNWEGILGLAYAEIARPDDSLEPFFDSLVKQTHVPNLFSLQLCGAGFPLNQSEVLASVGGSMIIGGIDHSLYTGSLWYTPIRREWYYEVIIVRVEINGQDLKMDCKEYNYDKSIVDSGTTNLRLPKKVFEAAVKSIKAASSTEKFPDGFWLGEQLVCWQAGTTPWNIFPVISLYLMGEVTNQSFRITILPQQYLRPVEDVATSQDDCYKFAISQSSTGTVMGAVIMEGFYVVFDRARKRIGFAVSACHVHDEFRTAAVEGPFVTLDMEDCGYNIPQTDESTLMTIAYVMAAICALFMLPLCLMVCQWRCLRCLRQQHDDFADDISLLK
# protocol_description: In vitro enzymatic BACE FRET assay
# Format: biochemical
# condition_label: read-out: BACE1 Enzyme assay IC50
We label by threshold. Values of IC50 strictly beneath 100 nM are met. Values of 100 nM and up are not met.

INSERT INTO measurements (compound, classification) VALUES
  ('COc1cc(Cl)cnc1C(=O)Nc1ccc(F)c([C@@]2(C(F)F)N=C(N)O[C@@H]3C[C@@H]32)c1', 'not met'),
  ('NC1=N[C@](c2cccc(NC(=O)c3ccc(Cl)cn3)c2)(C(F)(F)F)[C@@H]2C[C@@H]2O1 (racemic)', 'not met'),
  ('COc1cnc2c(Nc3ccc(F)c([C@@]4(C(F)F)N=C(N)O[C@@H]5C[C@@H]54)c3)nccc2n1', 'not met');

Prompt line: IC50 strictly < 100 nM for this compound? COc1cnc2c(Nc3ccc(F)c([C@@]4(C(F)F)N=C(N)O[C@@H]5C[C@@H]54)c3)ncc(F)c2c1
Response line: not met

Prompt line: I wonder whether COCC(=O)Nc1ccc(F)c([C@@]2(C(F)F)N=C(N)O[C@@H]3C[C@@H]32)c1 has IC50 below 100 nM. Can you tell?
Response line: not met

Prompt line: I'd appreciate it if you could check whether NC1=N[C@@](c2cc(NCC3CC3)ccc2F)(C(F)F)[C@H]2C[C@H]2O1 has IC50 smaller than 100 nM.
Response line: not met

Prompt line: Report whether reported IC50 is lower than 100 nM (strictly) for Cc1cc(OC(F)F)cnc1C(=O)Nc1ccc(Cl)c([C@@]2(C(F)F)N=C(N)O[C@@H]3C[C@@H]32)c1
Response line: met

Prompt line: Could you please tell me whether IC50 recorded for COc1cnc2c(Nc3ccc(F)c([C@@]4(C(F)F)N=C(N)O[C@@H]5C[C@@H]54)c3)nccc2c1 is less than 100 nM?
Response line: not met

---

# assay_target: Cathepsin D (Cat D) (Homo sapiens (Human), UniProt P07339)
# Sequence (P07339 65-412, species assumed): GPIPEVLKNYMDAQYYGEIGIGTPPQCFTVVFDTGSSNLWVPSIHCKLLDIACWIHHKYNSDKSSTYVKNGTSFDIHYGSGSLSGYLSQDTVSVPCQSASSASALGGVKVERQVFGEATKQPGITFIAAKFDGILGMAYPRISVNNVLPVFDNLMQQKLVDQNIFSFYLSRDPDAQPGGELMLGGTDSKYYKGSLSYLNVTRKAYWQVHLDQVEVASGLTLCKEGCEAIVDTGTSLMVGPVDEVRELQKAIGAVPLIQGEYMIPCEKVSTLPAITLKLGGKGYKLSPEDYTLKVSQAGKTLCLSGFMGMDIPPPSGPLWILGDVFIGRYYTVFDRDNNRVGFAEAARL
# protocol_description: In vitro enzymatic Cathepsin D (Cat D) FRET assay
# Type: biochemical
# condition_label: read-out: CatD IC50
Quick rule for you: IC50 under 300 µM gets 1, anything else gets -1.

INSERT INTO results (compound, classification) VALUES
  ('Cc1cc(Cl)cnc1C(=O)Nc1cc(C)c(F)c([C@@]2(C(F)F)N=C(N)O[C@@H]3C[C@@H]32)c1', -1),
  ('C[C@@]1(c2nc(NC(=O)c3ccc(Cl)cn3)ccc2F)N=C(N)O[C@H]2C[C@H]21', -1),
  ('Cc1cc(OC(F)F)cnc1C(=O)Nc1cc(F)c(Cl)c([C@@]2(CF)N=C(N)O[C@@H]3C[C@@H]32)c1', 1),
  ('Cn1cc(C(=O)Nc2ccc(F)c([C@@]3(C(F)F)N=C(N)O[C@@H]4C[C@@H]43)c2)ccc1=O', -1),
  ('NC1=NC(c2cc(NCc3nn(C(F)F)cc3Cl)ccc2F)(C(F)F)[C@H]2C[C@H]2O1 (stereo in doubt)', 1),
  ('N#Cc1cnc(C(=O)Nc2ccc(F)c([C@]3(CF)N=C(N)O[C@H]4C[C@H]43)c2)c(Cl)c1 (racemic)', -1),
  ('COc1cnc(C(=O)Nc2cc(C)c(F)c([C@@]3(C(F)F)N=C(N)O[C@@H]4C[C@@H]43)c2)c(C)c1', 1),
  ('C#CCOc1cnc(C(=O)Nc2cc(F)c(F)c([C@@]3(C(F)F)N=C(N)O[C@@H]4C[C@@H]43)c2)cn1 [Example 115]', 1);

Prompt line: For COc1cnc2c(Nc3ccc(F)c([C@@]4(C)N=C(N)O[C@@H]5C[C@@H]54)c3)nccc2c1 , is the recorded IC50 below the cut-off of 300 µM?
Response line: -1
